Biological target: HRgpA-6H (Porphyromonas gingivalis) (UniProt P28784)
Experiment: ELISA, coated HRgpA-6H
RECORDED ENDPOINT: Ratio OD(Variant)/OD(WT)
Give only the figure.

Would you kindly share the measured Ratio OD(Variant)/OD(WT) for KB001 mouse Fab VH S57M (Fab, V domains shown) VH: EVQLKQSGPGLVAPSQSLSITCTVSGFSLSIYSVHWVRQPPGKGLEWLGMIWGGGSMDYNSALKSRLSISKDNSKSQVFLKMNSLQTDDTAMYYCARNGNFYAMDYWGQGTSVTVSS VL: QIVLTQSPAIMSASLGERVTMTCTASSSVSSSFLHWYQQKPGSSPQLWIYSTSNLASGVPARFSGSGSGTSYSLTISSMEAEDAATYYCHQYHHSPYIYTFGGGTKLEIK ?
0.85

Try KB001 mouse Fab VL S53C (Fab, V domains shown) VH: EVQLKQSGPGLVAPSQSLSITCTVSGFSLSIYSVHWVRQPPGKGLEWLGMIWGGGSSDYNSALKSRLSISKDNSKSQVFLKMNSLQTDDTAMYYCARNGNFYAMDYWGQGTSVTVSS VL: QIVLTQSPAIMSASLGERVTMTCTASSSVSSSFLHWYQQKPGSSPQLWIYSTCNLASGVPARFSGSGSGTSYSLTISSMEAEDAATYYCHQYHHSPYIYTFGGGTKLEIK next.
0.885

Try KB001 mouse Fab VL N54F (Fab, V domains shown) VH: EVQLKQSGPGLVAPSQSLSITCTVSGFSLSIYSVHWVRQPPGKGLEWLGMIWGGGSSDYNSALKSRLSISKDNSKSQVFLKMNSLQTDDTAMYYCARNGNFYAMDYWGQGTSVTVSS VL: QIVLTQSPAIMSASLGERVTMTCTASSSVSSSFLHWYQQKPGSSPQLWIYSTSFLASGVPARFSGSGSGTSYSLTISSMEAEDAATYYCHQYHHSPYIYTFGGGTKLEIK next.
0.976

Try KB001 mouse Fab VH L63M (Fab, V domains shown) VH: EVQLKQSGPGLVAPSQSLSITCTVSGFSLSIYSVHWVRQPPGKGLEWLGMIWGGGSSDYNSAMKSRLSISKDNSKSQVFLKMNSLQTDDTAMYYCARNGNFYAMDYWGQGTSVTVSS VL: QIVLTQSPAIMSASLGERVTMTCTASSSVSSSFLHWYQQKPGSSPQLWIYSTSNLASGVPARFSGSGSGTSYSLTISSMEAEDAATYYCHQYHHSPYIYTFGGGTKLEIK next.
0.915

Try KB001 mouse Fab VH Y106T (Fab, V domains shown) VH: EVQLKQSGPGLVAPSQSLSITCTVSGFSLSIYSVHWVRQPPGKGLEWLGMIWGGGSSDYNSALKSRLSISKDNSKSQVFLKMNSLQTDDTAMYYCARNGNFYAMDTWGQGTSVTVSS VL: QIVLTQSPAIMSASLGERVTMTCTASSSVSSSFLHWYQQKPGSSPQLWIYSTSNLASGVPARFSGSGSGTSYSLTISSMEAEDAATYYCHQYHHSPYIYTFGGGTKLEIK next.
1.07

Try KB001 mouse Fab VL T100W (Fab, V domains shown) VH: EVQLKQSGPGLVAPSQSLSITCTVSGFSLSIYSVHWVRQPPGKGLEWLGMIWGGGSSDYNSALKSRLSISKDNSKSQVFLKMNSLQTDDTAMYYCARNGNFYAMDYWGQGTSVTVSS VL: QIVLTQSPAIMSASLGERVTMTCTASSSVSSSFLHWYQQKPGSSPQLWIYSTSNLASGVPARFSGSGSGTSYSLTISSMEAEDAATYYCHQYHHSPYIYWFGGGTKLEIK next.
1.12

Try KB001 mouse Fab VH A62E (Fab, V domains shown) VH: EVQLKQSGPGLVAPSQSLSITCTVSGFSLSIYSVHWVRQPPGKGLEWLGMIWGGGSSDYNSELKSRLSISKDNSKSQVFLKMNSLQTDDTAMYYCARNGNFYAMDYWGQGTSVTVSS VL: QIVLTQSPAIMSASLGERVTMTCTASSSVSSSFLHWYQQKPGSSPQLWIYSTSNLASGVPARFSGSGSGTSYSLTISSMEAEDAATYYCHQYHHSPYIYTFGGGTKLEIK next.
0.977

Try KB001 mouse Fab VL S30I (Fab, V domains shown) VH: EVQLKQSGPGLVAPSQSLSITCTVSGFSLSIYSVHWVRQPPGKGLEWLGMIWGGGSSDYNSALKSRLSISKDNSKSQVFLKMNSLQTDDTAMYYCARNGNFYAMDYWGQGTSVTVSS VL: QIVLTQSPAIMSASLGERVTMTCTASSSVISSFLHWYQQKPGSSPQLWIYSTSNLASGVPARFSGSGSGTSYSLTISSMEAEDAATYYCHQYHHSPYIYTFGGGTKLEIK next.
0.998

Try KB001 mouse Fab VH S57H (Fab, V domains shown) VH: EVQLKQSGPGLVAPSQSLSITCTVSGFSLSIYSVHWVRQPPGKGLEWLGMIWGGGSHDYNSALKSRLSISKDNSKSQVFLKMNSLQTDDTAMYYCARNGNFYAMDYWGQGTSVTVSS VL: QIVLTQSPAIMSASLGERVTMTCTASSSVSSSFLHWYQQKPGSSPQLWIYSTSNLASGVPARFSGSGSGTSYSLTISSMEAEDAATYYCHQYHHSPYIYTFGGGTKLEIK next.
0.91

Try KB001 mouse Fab VL T52L (Fab, V domains shown) VH: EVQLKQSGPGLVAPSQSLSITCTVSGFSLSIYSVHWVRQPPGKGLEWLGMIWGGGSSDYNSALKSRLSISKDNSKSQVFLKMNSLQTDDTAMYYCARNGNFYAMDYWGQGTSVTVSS VL: QIVLTQSPAIMSASLGERVTMTCTASSSVSSSFLHWYQQKPGSSPQLWIYSLSNLASGVPARFSGSGSGTSYSLTISSMEAEDAATYYCHQYHHSPYIYTFGGGTKLEIK next.
0.977
